- Test system: Wolbachia pipientis
- ASSAY_TEXT: Anti-Wolbachia Cell-Based Screen
- Assay type: functional
- Parameters: scale not given: in the data most compounds retested in dose-response had high values
- MEASUREMENT_CONTEXT: 5 µM
Among all 48,000 compounds or so, about 13,000 (27%) showed an effect of 50% or more. This is one part of the list.
PROPERTY_NAME: Percent Effect (%)
Give the value in % but do not write % after it.

Quick note, Percent Effect for Cn1ccnc1CCNS(=O)(=O)c1ccc(Br)cc1 landed at -0.8619

Quick note, Percent Effect for Cc1ccc2c(c1)C(N1CCOCC1)CC21CCNCC1 (stereo unspecified) landed at -7.905

Quick note, Percent Effect for COc1ccc(S(=O)(=O)NCCCc2nnc3nc(C)cc(C)n23)cc1 landed at 128.4

Quick note, Percent Effect for COc1ccc(S(=O)(=O)NCCCc2ccc(N(C)C)cc2)cc1Cl landed at 10.52

Quick note, Percent Effect for COc1ccc(CC(=O)NCCCc2nnc3nc(C)cc(C)n23)cc1 landed at 140.8

Quick note, Percent Effect for O=C(CCCc1cn[nH]c1)N1C[C@@H](CN2CCCCCC2)[C@@H](CO)C1 landed at 0.3132

Quick note, Percent Effect for CC(NCc1cn(CCC(N)=O)c2ccccc12)c1nncn1C (stereo unspecified) landed at -5.557

Quick note, Percent Effect for CCOc1ccc(S(=O)(=O)NCCCc2ccc(N(C)C)cc2)cc1F landed at 11.9

Quick note, Percent Effect for O=S(=O)(NCCNc1ccc(-n2cccc2)nn1)c1cccs1 landed at 19

Quick note, Percent Effect for COc1ccc(CCNC(=O)Nc2cc(C)nn2C)cc1 landed at -34.88

Quick note, Percent Effect for O=S(=O)(NCCNc1cc(-n2cccc2)ncn1)c1cccs1 landed at 9.931

Data provenance is ChEMBL document CHEMBL3988442.
